Molecular target: T1, SIKE1 second coiled-coil (CC2) region, residues 72–121 (human, UniProt Q9BRV8 72-121)
T1 construct: Homotetramer in the apo crystal, homodimer in the crystal with the STRN3 peptide; A Se-Met form was used for phasing; also called SIKE1 CC2; source: E. coli BL21 (DE3) CodonPlus, purified
T1 chain (looked up): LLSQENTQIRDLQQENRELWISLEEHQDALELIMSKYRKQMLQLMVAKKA
Assay: ITC; iTC200, 25 °C, 20 mM HEPES (pH 7.5), 100 mM NaCl
Settings: both partners purified
endpoint_name: Kd
Write the numeric value and append its unit.

Fill in reported Kd for this entry: QNSQLTWKQGRQLLRQYLQEVGYTD (peptide, UniProt Q13033 166-190, looked up) [STRN3 peptide (residues 166–190)]
2.9 µM
